# Tested on: Staphylococcus aureus
# assay.name: Minimum inhibitory concentration against growth of Methicillin resistant […] aureus
# Assay type: functional
readout.label: MIC (µg/mL)
One number for each entry, in µg/mL.

Would you please look over these solved cases?
CC(C)C[C@@H](N)C(=O)N[C@H]1C(=O)N[C@@H](CC(N)=O)C(=O)N[C@H]2C(=O)N[C@H]3C(=O)N[C@H](C(=O)N[C@H](C(=O)NCC(=O)O)c4cc(O)cc(O)c4-c4cc3ccc4O)[C@H](O)c3ccc(c(Cl)c3)Oc3cc2cc(c3O[C@@H]2O[C@@H](CO)[C@@H](O)[C@H](O)[C@@H]2O[C@H]2C[C@](C)(Nc3ccc(Cl)cc3)[C@H](O)[C@H](C)O2)Oc2ccc(cc2Cl)[C@H]1O    5
CC(C)C[C@@H](N)C(=O)N[C@H]1C(=O)N[C@@H](CC(N)=O)C(=O)N[C@H]2C(=O)N[C@H]3C(=O)N[C@H](C(=O)N[C@H](C(=O)NCC(=O)O)c4cc(O)cc(O)c4-c4cc3ccc4O)[C@H](O)c3ccc(c(Cl)c3)Oc3cc2cc(c3O[C@@H]2O[C@@H](CO)[C@@H](O)[C@H](O)[C@@H]2O[C@H]2C[C@](C)(Nc3ccc(F)cc3)[C@H](O)[C@H](C)O2)Oc2ccc(cc2Cl)[C@H]1O    2.5
CC(C)C[C@@H](N)C(=O)N[C@H]1C(=O)N[C@@H](CC(N)=O)C(=O)N[C@H]2C(=O)N[C@H]3C(=O)N[C@H](C(=O)N[C@H](C(=O)NCC(=O)O)c4cc(O)cc(O)c4-c4cc3ccc4O)[C@H](O)c3ccc(c(Cl)c3)Oc3cc2cc(c3O[C@@H]2O[C@@H](CO)[C@@H](O)[C@H](O)[C@@H]2O[C@H]2C[C@](C)(Nc3ccc(-c4ccccc4)cc3)[C@H](O)[C@H](C)O2)Oc2ccc(cc2Cl)[C@H]1O    5
CN[C@H](CC(C)C)C(=O)N[C@H]1C(=O)N[C@@H](CC(N)=O)C(=O)N[C@H]2C(=O)N[C@H]3C(=O)N[C@H](C(=O)N[C@H](C(=O)NCC(=O)O)c4cc(O)cc(O)c4-c4cc3ccc4O)[C@H](O)c3ccc(c(Cl)c3)Oc3cc2cc(c3O[C@@H]2O[C@@H](CO)[C@@H](O)[C@H](O)[C@@H]2O[C@H]2C[C@](C)(NC(=O)OCC3c4ccccc4-c4ccccc43)[C@H](O)[C@H](C)O2)Oc2ccc(cc2Cl)[C@H]1O    5

Lab note: next molecule to report on.
**Q:** Lab note: Staphylococcus aureus assay, enter MIC for `CC(C)C[C@H](C(=O)N[C@H]1C(=O)N[C@@H](CC(N)=O)C(=O)N[C@H]2C(=O)N[C@H]3C(=O)N[C@H](C(=O)N[C@H](C(=O)NCC(=O)O)c4cc(O)cc(O)c4-c4cc3ccc4O)[C@H](O)c3ccc(c(Cl)c3)Oc3cc2cc(c3O[C@@H]2O[C@@H](CO)[C@@H](O)[C@H](O)[C@@H]2O[C@H]2C[C@](C)(NC(=O)OCC3c4ccccc4-c4ccccc43)[C@H](O)[C@H](C)O2)Oc2ccc(cc2Cl)[C@H]1O)N(C)C(=O)OCC1c2ccccc2-c2ccccc21` here
**A:** 5
